Source listed as ChEMBL document CHEMBL1201862.

This section presents compounds with their documented GI50 values.
# Tested on: SK-MEL-2
# method.summary: NCI tumour cell line growth inhibition, 48 h
Active and inactive are the calls of the source. Cut-off read from the data, not from the text of the source: active = GI50 up to about 1.1 µM and inactive = higher.

# count of solved cases: 4
| compound | endpoint.result |
| --- | --- |
| N#CC(C#N)=CNC(=S)c1ccncc1 | > 100 µM (inactive) |
| Cc1ccc(NC(=S)NNC(=O)c2cc(-c3ccccc3)nc3ccccc23)cc1 | 10.3 µM (inactive) |
| COc1ccccc1NC(=S)N/N=C/c1c(C)n(C)n(-c2ccccc2)c1=O | > 100 µM (inactive) |
| NC(CCC(=O)c1ccccn1)C(=O)O (stereo not drawn) | > 100 µM (inactive) |

Looking for the measured GI50 of CO[C@@H]1O[C@H](C(=O)c2ccccc2)[C@H]2OC(C)(C)O[C@@H]12 , can you help? > 100 µM (inactive)

Please answer likewise for N#Cc1c(N)nc2[nH]nc(N)c2c1-c1ccccc1 3.4 µM (inactive)

###

# Test system: CCRF-CEM
# method.summary: NCI tumour cell line growth inhibition, 48 h
Active and inactive are the calls of the source. Cut-off read from the data, not from the text of the source: active = GI50 up to about 1.1 µM and inactive = higher.
observation.type: GI50

# count of solved cases: 4
| compound | observation.type | endpoint.result |
| --- | --- | --- |
| Cc1noc(C)c1/N=N/c1ccc2nonc2c1N | GI50 | > 100 µM (inactive) |
| Cc1nc(C)c(C(=O)Nc2cccc3c2C(=O)NC3=O)cc1C(=O)Nc1cccc2c1C(=O)NC2=O | GI50 | > 100 µM (inactive) |
| O=C1CC2CCCC23CC2(CCN13)OCCO2 (stereo not drawn) | GI50 | > 100 µM (inactive) |
| CC(C)(C)OC(=O)/C=C/[C@@H](CCC(=O)/C=C/[C@H](/C=C\CCCC(=O)O)NC1(c2ccccc2)c2ccccc2-c2ccccc21)O[Si](C)(C)C(C)(C)C | GI50 | 29.2 µM (inactive) |

Looking for the measured GI50 of COc1ccc(NC(=O)CC(=O)N2N=C(N3CCCCC3)CC2c2ccccc2)cc1 (stereo not drawn) , can you help? > 100 µM (inactive)

Please answer likewise for COC(=O)C[C@H]1CCC2(OCCO2)[C@]1(C)C(=O)OC > 100 µM (inactive)

Please answer likewise for OC1COC(n2c3ccc(Br)cc3c3ccc4c5ccccc5[nH]c4c32)C(O)C1O (stereo not drawn) 4.72 µM (inactive)

Please answer likewise for Cc1cccc2c(N)c3cccc(C(=O)NCC[N+]4(Cc5ccc([N+](=O)[O-])cc5)CCOCC4)c3nc12 26.1 µM (inactive)

###

# System: KM12
# method.summary: NCI tumour cell line growth inhibition, 48 h
The source made the active and inactive calls. Rule as the data show it: active = GI50 up to about 1.1 µM and inactive = higher.
observation.type: GI50

# count of solved cases: 5
| molecule | observation.type | endpoint.result |
| --- | --- | --- |
| OCC1OC(n2nc(-c3ccccc3)nc2-c2cnccn2)C(O)C1O (centres undefined) | GI50 | > 100 µM (inactive) |
| CCOC(=O)NC(Nc1ccc(S(=O)(=O)Nc2ncccn2)cc1)(C(=O)OCC)C(F)(F)F (centres undefined) | GI50 | > 100 µM (inactive) |
| O=C(O)c1ccccc1CC1Cc2ccccc2C1=O (centres undefined) | GI50 | > 100 µM (inactive) |
| NS(=O)(=O)c1ccc(NC(=S)NC=C2C(=O)c3ccccc3C2=O)cc1 | GI50 | > 100 µM (inactive) |
| COc1ccccc1NC(=O)C1=C(C)NC(C)=C(C(=O)Nc2ccccc2OC)C1c1ccco1 | GI50 | 3.98 µM (inactive) |

Looking for the measured GI50 of C=C(CS(=O)(=O)c1ccccc1)C(=O)OCC , can you help? 16.1 µM (inactive)

Please answer likewise for O=C(/C=C1\C[C@H]2C=Nc3ccccc3C(=O)N2C1)NCCCNC(=O)/C=C1\C[C@H]2C=Nc3ccccc3C(=O)N2C1 16 µM (inactive)

Please answer likewise for COc1ccc(NC(=O)CC(=O)N2N=C(N3CCCCC3)CC2c2ccccc2)cc1 (centres undefined) > 100 µM (inactive)
